Assay info: folding stability dG unfold from chymotrypsin proteolysis; higher = more stable
Property label: folding stability dG unfold (kcal/mol)
Lab book: enter the figure in kcal/mol, no units written.

# count of solved cases: 3
1. SAGGSPGSSLIGKKKLTIKVDNKDVEVEVTTSLSFLPSNQVTTSTEVKITLPNGKKIPKSLVEKLLSAGGSA [r2_363_JUSTAS]; 0.66
2. SAGGSAGGSAPKPKTKTIMFRFPGTPEDALDIAKEIANYFNDRGLEIEVERHPNGYIMITFPSAGGSAGGSA [r18_262_TrROS]; 2.82
3. SAGGSAAKPGETVRVVVTVRVPPGATAEELKAALEALLGPDAEVTVEVFETPDTVVVVVEVRLPPASAGGSA [r15_749_TrROS_Hall]; 2.66

Exercise: Given SAGGSAGGSGGMMPVTLTITPVNPPGASTSSTTIPVNFTSPEEAAAAKEKIAAELPSNATVTGSAGGSAGGS [r20_211_JUSTAS] , state its recorded folding stability dG unfold.
Key: -1.1

Exercise: Can you look up the measured folding stability dG unfold of SAGGSAGGSAGGMTTKYVITVEVPGENRTETIYLDVPPSRPEEAEALAKEISPNAKIERLSAGGSAGGSAGG [r11_250_JUSTAS] for me?
Key: 0.187

Exercise: Name the reported folding stability dG unfold value associated with the sequence SAGGSAGGKIKPGEKVKVKVKIKNKNGEVFEATATVVDGKIFIEVDGKIYEISADDIEEIEVEPSAGGSAGG [r6_132_TrROS_Hall]
Key: 2.92

Exercise: folding stability dG unfold lookup needed for SAGGPVLRLSFPTRTPDGELVRVEVVYDPETGALLVRVYSLTRPNRAVLYLVDPENPLTVLRAEELPLSAGG [r13_400_TrMRF] , thanks.
Key: 3.01

* * *

Assay info: folding stability dG unfold (combined trypsin and chymotrypsin); higher = more stable
Let's look at some sequences and their measured folding stability dG unfold.
Give the value, in units of kcal/mol, as a plain number.

# annotated cases, reported folding stability dG unfold shown
1. SAGGNLRIRIEMENKDGNKRKIPIPEEEFNRIKESLKNGKPITPEPASWISDYARRNGYDVKIVDIYSAGGS [r8_159_TrROS]; -0.35
2. SAGGSAGGSAGPITYRLEIRYEIERIEVRVYPGPEGPLVGEFRIEVRLEVRVEALPPEETSAGGSAGGSAGG [r11_24_TrMRF]; 4.53
3. SAGGAITLEYEVETEEEAEKAIEELEKELKEKFGGPVKIEKATIEKTEDPSVPREKYRLKLTIEINKSAGGS [r8_171_JUSTAS]; 0.858

Exercise: # lookup: folding stability dG unfold of SAGMMKFPPGAKIKIVNKETGEEKEITLPEGAEVEFDEETGEVHIRVKVDGKEYRFTFKNGEIVEVEEVSAG [r5_22_TrROS_Hall]
Key: 3.73

Exercise: Fill in the blank: the reported folding stability dG unfold of SAGGKLTITLPPGVKEVKIEVDKETNEVKVTVTVEVTDENGKKHKVTRTFTFKLEDGETVTVTVTLPSAGGS [r16_552_TrROS_Hall] is ____.
Key: 5.44

Exercise: Which measured folding stability dG unfold value corresponds to SAGGSAGGSGSMEFTIDDEDLRIEIKFLPGGKVEITIWDPTNNVPLKTIETEPEEIEEVIEKLSAGGSAGGS [r20_129_JUSTAS] ?
Key: 2.15
